# credit: ChEMBL document CHEMBL2029339

molecular target: Smoothened (Mus musculus); test: Inhibition of Smo-mediated Hh signaling in mouse Shh-light2 cells at 0.3 uM by luciferase reporter gene assay; details: Shh Light II
Readings of inhibition for the listed compounds
Please reply with the bare figure in % and do not write the unit itself.

COc1cc(C(=O)NC(=S)Nc2cccc(NC(=O)c3ccc(-c4ccccc4)cc3)c2C)cc(OC)c1OC : 9
COc1cc(C(=O)NC(=N)Nc2ccc(C)c(NC(=O)c3ccccc3)c2)cc(OC)c1OC : 88

Query: Retrieve inhibition measured for COc1cc(C(=O)NC(=S)Nc2ccc(C)c(NC(=O)c3cccc(-c4ccccc4)c3)c2)cc(OC)c1OC and print it.
Reply: 72

----------
biological target: UniProt:P56726; assay: Inhibition of Smo-mediated Hh signaling in mouse Shh-light2 cells at 3 uM by luciferase reporter gene assay; details: Shh Light II
property: inhibition

COc1cc(C(=O)NC(=S)Nc2cccc(NC(=O)c3ccc(-c4ccccc4)cc3)c2)cc(OC)c1OC : 89%
COc1cc(C(=O)NC(=S)Nc2ccc(Cl)c(C(=O)Nc3ccc(Cl)cc3)c2)cc(OC)c1OC : 98%
COc1cc(C(=O)NC(=S)Nc2cccc(-n3ccc4ccccc43)c2)cc(OC)c1OC : 69%

Query: Retrieve inhibition measured for COc1cc(C(=O)NC(=S)Nc2cccc(NC(=O)c3ccncc3)c2)cc(OC)c1OC and print it.
Reply: 67%

Query: Retrieve inhibition measured for COc1cc(C(=O)NC(=O)Nc2cccc(NC(=O)c3ccccc3)c2)cc(OC)c1OC and print it.
Reply: 96%

Query: Retrieve inhibition measured for COc1ccc(C(=O)Nc2cccc(NC(=S)NC(=O)c3cc(OC)c(OC)c(OC)c3)c2)cc1 and print it.
Reply: 93%

Query: Retrieve inhibition measured for COc1ccc(C(=O)NC(=S)Nc2cccc(NC(=O)c3ccccc3)c2)c(OC)c1 and print it.
Reply: 34%

----------
target: Smoothened (Mus musculus) (UniProt P56726); assay: Inhibition of Smo-mediated Hh signaling in mouse Shh-light2 cells at 3 uM by luciferase reporter gene assay; conditions: Shh Light II
Sequence (P56726 whole entry, looked up): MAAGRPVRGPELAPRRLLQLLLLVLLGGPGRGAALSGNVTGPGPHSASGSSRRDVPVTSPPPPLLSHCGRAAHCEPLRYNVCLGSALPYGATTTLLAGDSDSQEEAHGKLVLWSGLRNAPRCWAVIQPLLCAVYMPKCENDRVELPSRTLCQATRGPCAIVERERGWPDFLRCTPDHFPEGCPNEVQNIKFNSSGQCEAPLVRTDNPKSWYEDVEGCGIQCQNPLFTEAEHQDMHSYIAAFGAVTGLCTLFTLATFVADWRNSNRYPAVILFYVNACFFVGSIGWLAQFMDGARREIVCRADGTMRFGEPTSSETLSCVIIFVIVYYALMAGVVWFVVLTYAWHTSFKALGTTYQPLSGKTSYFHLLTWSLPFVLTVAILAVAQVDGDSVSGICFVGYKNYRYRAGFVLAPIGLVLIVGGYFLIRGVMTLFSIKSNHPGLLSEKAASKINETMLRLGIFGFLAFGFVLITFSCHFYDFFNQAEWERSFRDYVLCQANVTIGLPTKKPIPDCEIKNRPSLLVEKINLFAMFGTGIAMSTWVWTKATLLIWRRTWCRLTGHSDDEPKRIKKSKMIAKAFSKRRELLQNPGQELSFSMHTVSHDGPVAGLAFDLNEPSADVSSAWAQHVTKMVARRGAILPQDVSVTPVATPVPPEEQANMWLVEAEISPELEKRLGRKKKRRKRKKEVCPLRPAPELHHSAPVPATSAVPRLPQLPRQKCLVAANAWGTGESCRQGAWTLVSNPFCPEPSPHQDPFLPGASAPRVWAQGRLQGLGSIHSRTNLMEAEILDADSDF
The threshold is inclusive: inhibition of exactly 90% counts as T; values below receive F.

COc1cc(C(=O)NC(=O)Nc2ccc(C)c(NC(=O)c3ccc(-c4ccccc4)cc3)c2)cc(OC)c1OC : T
COc1cc(C(=O)NC(=S)Nc2cccc(NC(=O)C(C)C)c2)cc(OC)c1OC : F
COc1ccc(NC(=S)NC(=O)c2cc(OC)c(OC)c(OC)c2)cc1NC(=O)c1ccccc1 : F
COc1cc(C(=O)NC(=S)Nc2cccc(NC(=O)c3ccccc3)c2)cc(OC)c1OC : T
COc1cc(C(=O)NC(=S)Nc2cccc(NC(=O)c3cccs3)c2)cc(OC)c1OC : F

Query: Does the reported inhibition for COc1cc(C(=O)NC(=S)Nc2cccc(NC(=O)c3ccc(-c4ccc(F)cc4)cc3)c2)cc(OC)c1OC fall at or above the 90% mark?
Reply: T

Query: Does the reported inhibition for COc1cc(C(=O)NC(=O)Nc2cccc(NC(=O)c3ccc4ccccc4c3)c2)cc(OC)c1OC fall at or above the 90% mark?
Reply: F

----------
Readings of inhibition for the listed molecules
target: Smoothened (Mus musculus); test: Inhibition of Smo-mediated Hh signaling in mouse Shh-light2 cells at 3 uM by luciferase reporter gene assay; conditions: Shh Light II
Please reply with the bare figure in % and do not write the unit itself.

COc1cc(C(=O)NC(=S)Nc2cc(NC(=O)c3ccccc3)ccc2F)cc(OC)c1OC : 92
COc1cc(C(=O)NC(=S)Nc2ccc(C)c(C(=O)Nc3ccccc3)c2)cc(OC)c1OC : 89

Query: Retrieve inhibition measured for COc1cc(C(=O)NC(=S)Nc2cccc(-c3cn4ccsc4n3)c2)cc(OC)c1OC and print it.
Reply: 92

Query: Retrieve inhibition measured for COc1cc(C(=O)NC(=S)Nc2cccc(-c3cc4ccccc4[nH]3)c2)cc(OC)c1OC and print it.
Reply: 90

----------
target: Smoothened (Mus musculus) (UniProt P56726); assay: Inhibition of Smo-mediated Hh signaling in mouse Shh-light2 cells at 3 uM by luciferase reporter gene assay; details: Shh Light II
property: inhibition

COc1ccc(C(=O)NC(=S)Nc2cccc(NC(=O)c3ccccc3)c2)cc1OC : 71%
COc1cc(C(=O)NC(=S)Nc2ccc(Cl)c(NC(=O)c3ccc(-c4ccccc4)cc3)c2)cc(OC)c1OC : 99%
COc1cc(C(=O)NC(=S)Nc2cccc(-n3cnc4ccccc43)c2)cc(OC)c1OC : 84%

Query: Retrieve inhibition measured for COc1cc(C(=O)NC(=S)Nc2ccc(Cl)c(C(=O)Nc3ccc(N(C)C)cc3)c2)cc(OC)c1OC and print it.
Reply: 99%

Query: Retrieve inhibition measured for COc1cc(C(=O)NC(=S)Nc2ccc(Cl)c(NC(=O)c3ccccc3)c2)cc(OC)c1OC and print it.
Reply: 89%

Query: Retrieve inhibition measured for COc1cc(C(=O)NC(=S)Nc2cccc(NC(=O)c3ccco3)c2)cc(OC)c1OC and print it.
Reply: 53%

Query: Retrieve inhibition measured for COc1ccc(C(=O)Nc2cccc(NC(=O)NC(=O)c3cc(OC)c(OC)c(OC)c3)c2)cc1 and print it.
Reply: 103%

Query: Retrieve inhibition measured for COc1cc(C(=O)NC(=O)Nc2cccc(NC(=O)c3ccccc3)c2)cc2c1OCO2 and print it.
Reply: 2%

Query: Retrieve inhibition measured for COc1ccc(NC(=O)c2cc(NC(=S)NC(=O)c3cc(OC)c(OC)c(OC)c3)ccc2Cl)cc1 and print it.
Reply: 100%

Query: Retrieve inhibition measured for COc1cc(C(=O)NC(=S)Nc2cccc(NC(=O)c3ccc4ccccc4c3)c2)cc(OC)c1OC and print it.
Reply: 24%

Query: Retrieve inhibition measured for COc1cc(C(=O)NC(=S)Nc2cccc(NC(=O)c3ccccc3Cl)c2)cc(OC)c1OC and print it.
Reply: 66%
